Test system: MCF7
Protocol details: NCI tumour cell line growth inhibition, 48 h
Calls of active or inactive are those of the source. No stated cut-off is given here; in the data, active = GI50 up to about 1.1 µM and inactive = higher.
Outcome (select one): t for active, f for inactive

Some entries whose results are on file:
[
  {
    "Compound": "COC(=O)C1=C(O)C(C(=O)OC)[C@]2(O)[C@H](C(=O)OC)[C@H]1C[C@@H](c1ccc(Cl)cc1Cl)[C@H]2C(=O)OC (stereo not given in full)",
    "Label value": "f"
  },
  {
    "Compound": "OC1CCCC1C(O)(C(F)(F)F)C(F)(F)F (stereo not given)",
    "Label value": "f"
  },
  {
    "Compound": "CN(C)C(=O)c1nnsc1NN=O",
    "Label value": "f"
  },
  {
    "Compound": "O=c1[nH]c2ccccc2c(=O)n1/N=C\\c1ccccc1O",
    "Label value": "f"
  },
  {
    "Compound": "O=C(Nc1c(Cl)cc([N+](=O)[O-])cc1Cl)C(=O)C1C(=O)NC(=S)NC1=O",
    "Label value": "f"
  }
]

Task: Which outcome did this test record for the compound Cc1c(-c2ccccc2)c(C#N)c2nnn(C)c(=O)n12 ?
Output: f

Task: Which outcome did this test record for the compound Nc1ccc(Oc2ccc(C3(c4ccc(Oc5ccc(N)cc5)cc4)C4CC5C6CC7CC5C3C(C7)C6C4)cc2)cc1 ?
Output: f

Task: Which outcome did this test record for the compound CC(ON(C(c1ccccc1)C(C)C)C(C)(C)C)c1ccccc1 (stereo not given) ?
Output: f

Task: Which outcome did this test record for the compound O=C1Nc2ccc(S(=O)(=O)NCCO)cc2/C1=C1/Nc2ccccc2C1=O ?
Output: t

Task: Which outcome did this test record for the compound Cc1ccc(S(=O)(=O)O)cc1.c1cc2c(c(NC3=NCCN3)c1)CCCC2 ?
Output: f

---

Test system: MDA-MB-435
Protocol details: NCI tumour cell line growth inhibition, 48 h
The source made the active and inactive calls. Rule as the data show it: active = GI50 up to about 1.1 µM and inactive = higher.
Observation type: GI50

[
  {
    "Molecule": "OCCCCCNc1c2ccccc2nc2ccccc12",
    "GI50": "2.68 µM (inactive)"
  },
  {
    "Molecule": "Cc1nc(=O)[nH]c2c1C(=O)N(C(C)C)C(NC(C)C)S2 (stereo not drawn)",
    "GI50": "> 100 µM (inactive)"
  },
  {
    "Molecule": "NP(=O)(OCC1=CC(=O)c2ccccc2C1=O)N(CCBr)CCBr (stereo not drawn)",
    "GI50": "2.14 µM (inactive)"
  },
  {
    "Molecule": "CC(=O)Oc1ccc(C)c2c1[C@H]1CC[C@]3(C)[C@@H](OC(C)=O)CC[C@H]3[C@@H]1CC2",
    "GI50": "17.9 µM (inactive)"
  },
  {
    "Molecule": "O=C1C(c2c(O)[nH]c3ccccc23)=Nc2ccc(Br)cc21",
    "GI50": "61.8 µM (inactive)"
  },
  {
    "Molecule": "COC(=O)c1ccccc1NCc1cc(O)ccc1O",
    "GI50": "17.8 µM (inactive)"
  },
  {
    "Molecule": "N=C(c1ccc(-c2cn3cc(C(=N)N4CCCC4)ccc3n2)cc1)N1CCCC1",
    "GI50": "> 100 µM (inactive)"
  },
  {
    "Molecule": "Cc1n[nH]c(=S)n1/N=C/c1ccc(-c2ccc(Cl)cc2)o1",
    "GI50": "> 100 µM (inactive)"
  },
  {
    "Molecule": "O=C(O)c1ccccc1C(=O)Nn1cnnc1",
    "GI50": "> 100 µM (inactive)"
  },
  {
    "Molecule": "COc1cc(Cn2c3c(c4cc(O)ccc42)C(=O)c2ccccc2C3=O)cc(OC)c1",
    "GI50": "0.743 µM (active)"
  }
]

Task: Entry CN(C)CCNC(=O)c1cc([N+](=O)[O-])cc2c1Oc1ccccc1O2 needs its GI50 filled in; supply it.
Output: 39.7 µM (inactive)

Task: Entry OC1CCCC1C(O)(C(F)(F)F)C(F)(F)F (stereo not drawn) needs its GI50 filled in; supply it.
Output: > 100 µM (inactive)

Task: Entry CN(C)CCNC(=O)c1cccc2c1Oc1cccc([N+](=O)[O-])c1O2 needs its GI50 filled in; supply it.
Output: 16.5 µM (inactive)

Task: Entry CC(=O)OCC1OC(n2c(C)c(C)c(C)c(C#N)c2=S)C(OC(C)=O)C(OC(C)=O)C1OC(C)=O (stereo not drawn) needs its GI50 filled in; supply it.
Output: > 100 µM (inactive)

Task: Entry COc1cc(C2c3cc(O)c(OC)cc3C3OCC2C3CO)ccc1O (stereo not drawn) needs its GI50 filled in; supply it.
Output: > 100 µM (inactive)

---

GI50 by entry:
Tested on: OVCAR-8
Protocol details: NCI tumour cell line growth inhibition, 48 h
Activity calls are given as the source filed them. Rule as the data show it: active = GI50 up to about 1.1 µM and inactive = higher.

Field: example entries. Status: answers known.
[
  {
    "Compound": "COc1ccc2cc3n(c(=O)c2c1)CCc1c-3cc(OC)c(OC)c1OC",
    "Result": "> 100 µM (inactive)"
  },
  {
    "Compound": "C/C(=N\\NC(=O)c1ccccc1O)c1cccc(/C(C)=N/NC(=O)c2ccccc2O)n1",
    "Result": "2.13 µM (inactive)"
  },
  {
    "Compound": "O=C(Nc1c(Cl)cc([N+](=O)[O-])cc1Cl)C(=O)C1C(=O)NC(=S)NC1=O",
    "Result": "> 100 µM (inactive)"
  },
  {
    "Compound": "CC(=O)c1c2c(cc3c1CC1(C3)Cc3cc4c(c(C(C)=O)c3C1)CCCC4)CCCC2",
    "Result": "> 100 µM (inactive)"
  }
]

Task: Entry Cn1sc2ccccc2c1=S needs its GI50 filled in; supply it.
Output: 9.71 µM (inactive)

---

Test system: UACC-257
Protocol details: NCI tumour cell line growth inhibition, 48 h
Calls of active or inactive are those of the source. No stated cut-off is given here; in the data, active = GI50 up to about 1.1 µM and inactive = higher.
Outcome (select one): 1 (yes) = active, 0 (no) = inactive

[
  {
    "Compound": "CC(=O)[C@@]1(C)CC2(CCN(C)CC2)OC1C (stereo not given in full)",
    "Label value": "0 (no)"
  },
  {
    "Compound": "CCN(CC)C1CC(O[C@H]2C[C@](O)(C(=O)CO)Cc3c(O)c4c(c(O)c32)C(=O)c2c(OC)cccc2C4=O)OC(C)C1O (stereo not given in full)",
    "Label value": "1 (yes)"
  },
  {
    "Compound": "CCc1cc(CCC(=O)Nc2c(C)cccc2C)n[nH]1",
    "Label value": "0 (no)"
  },
  {
    "Compound": "Cc1cc(NS(=O)(=O)c2ccc(NC(=O)c3cccn4c(=O)c5ccccc5nc34)cc2)no1",
    "Label value": "0 (no)"
  },
  {
    "Compound": "CC/C=C/c1cc2c(c3[nH]ccc13)[C@@H](C)CC2C.CC/C=C/c1cc2cc[nH]c2c2c1C(C)C[C@@H]2C.CCc1cc2c(c3[nH]ccc13)[C@@H](C)CC2C (stereo not given in full)",
    "Label value": "0 (no)"
  }
]

Task: Which outcome did this test record for the compound O=C1OC(c2ccccc2)=NC1c1ccccc1 (stereo not given) ?
Output: 0 (no)

Task: Which outcome did this test record for the compound CC#CC#C/C=C1/O[C@]2(CCC(OC(=O)CC(C)C)CO2)[C@@H]2O[C@H]12 (stereo not given in full) ?
Output: 0 (no)

Task: Which outcome did this test record for the compound Cc1cccc2c1C(=O)OC2(c1cccc2ccccc12)c1cccc2ccccc12 ?
Output: 0 (no)

Task: Which outcome did this test record for the compound Cc1cc(-c2nc3cc(F)c(F)cc3s2)ccc1N ?
Output: 0 (no)

Task: Which outcome did this test record for the compound O=C(N/C=C1\C(=O)Oc2ccccc2C1=O)Oc1ccccc1 ?
Output: 0 (no)

Task: Which outcome did this test record for the compound Cc1ccc(NC(=O)C2C(=O)N(c3ccc(C)c(C)c3)C(=O)C2N=N)cc1C (stereo not given) ?
Output: 0 (no)

---

Tested on: A498
Protocol details: NCI tumour cell line growth inhibition, 48 h
Active and inactive are the calls of the source. Cut-off read from the data, not from the text of the source: active = GI50 up to about 1.1 µM and inactive = higher.
Observation type: GI50

[
  {
    "Compound": "COc1cc(C2c3cc4c(cc3OC(NNc3ccccc3)C2C)OCO4)cc(OC)c1O (stereo not drawn)",
    "GI50": "3.85 µM (inactive)"
  },
  {
    "Compound": "COC(=O)C1Cc2c([nH]c3ccccc23)-c2[nH]c3ccccc3c2CC(NC(C)=O)C(=O)NCC(=O)NCC(=O)N1 (stereo not drawn)",
    "GI50": "> 100 µM (inactive)"
  }
]

Read the next record carefully.
Task: Entry O=C1OC(CC(=O)c2ccc(Cl)c(Cl)c2)C(Cl)=C1Cl (stereo not drawn) needs its GI50 filled in; supply it.
Output: 31.2 µM (inactive)
